Entry source: paper PMC5709738

- study_target: T1, full-length Ctf19-Mcm21 (K. lactis) (Kluyveromyces lactis, UniProt Q6CRN7 1-270; Q6CVQ9 1-293)
- T1 chain 1: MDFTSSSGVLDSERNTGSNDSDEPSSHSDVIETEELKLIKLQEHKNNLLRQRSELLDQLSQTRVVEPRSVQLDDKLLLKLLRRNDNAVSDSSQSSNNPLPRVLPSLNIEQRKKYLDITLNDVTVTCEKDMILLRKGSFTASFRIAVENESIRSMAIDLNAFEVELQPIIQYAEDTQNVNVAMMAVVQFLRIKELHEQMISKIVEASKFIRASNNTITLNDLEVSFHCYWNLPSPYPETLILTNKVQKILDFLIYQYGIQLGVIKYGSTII
- T1 chain 2: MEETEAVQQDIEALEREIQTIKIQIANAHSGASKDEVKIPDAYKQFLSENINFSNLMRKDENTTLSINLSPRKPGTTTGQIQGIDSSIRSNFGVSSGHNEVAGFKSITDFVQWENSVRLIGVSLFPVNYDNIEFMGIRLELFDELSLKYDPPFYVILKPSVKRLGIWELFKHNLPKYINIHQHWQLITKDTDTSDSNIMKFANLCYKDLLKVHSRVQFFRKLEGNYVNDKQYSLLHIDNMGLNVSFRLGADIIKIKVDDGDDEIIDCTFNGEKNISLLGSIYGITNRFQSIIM
- assay_info: ITC
value_kind: Kd (nM)
Unit nM implied. Number only.

Prompt: Query: Kd; subject: SNEIYQQDKIDFNLKLKTDF (peptide, UniProt Q6CJY0 318-337, looked up, also called Okp1-derived peptide; source: synthetic peptide (Protein Chemistry core facility, IMP, Vienna)) [Okp1-derived synthetic peptide with the Ctf19-Mcm21 binding motif (Okp1 residues 318-337)]
Response: 43
